Run Description: qHTS Assay for Lipid Storage Modulators in Drosophila S3 Cells;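 for cell number change: cells counted by Cell Tracker Red CMTPX staining in the red channel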
Measurement Setup: BODIPY lipid droplet fluorescence, 18-24 h, cells fed with added oleic acid; measured here: cell count max response
Screen size: about 320,000 compounds; about 2,100 (0.66%) were called active. About 53% were inconclusive and are not listed. The sample as a whole holds a higher share of actives than the screen did.
Property Measured: cell number change (%)
The reply should contain only the number, in %.

Cc1ccc(OCCSc2ncnc3sc(C)c(C)c23)cc1C; -4.8
O=P(c1ccccc1)(c1ccccc1)C(O)c1ccncc1 (stereo not drawn); 15.4

Read the next record carefully.
-- ask Field request: cell number change | item: Cc1cccc(C(=O)Nc2ccc(C)c(OC(=O)c3cccc(C)c3)c2)c1
-- reply -20.4

---

Run Description: qHTS Assay for Lipid Storage Modulators in Drosophila S3 Cells
Measurement Setup: BODIPY lipid droplet fluorescence, 18-24 h, cells fed with added oleic acid; series mostly up to 46.1 µM
Source text: NIH Molecular Libraries Probe Production Centers Network [MLPCN] NIH Chemical Genomics Center [NCGC] […] Triacsin C (Sigma-Aldrich T-4540), an inhibitor of long-chain fatty acyl CoA synthetase that blocks synthesis of triglycerides, was used as a positive control for lipid under-storage. […] Fluorescence was detected by excitation of the fluorophores with a 488-nm laser on an Acumen Explorer (TTP Lab Tech). […] Cells were detected using channel 3 (575-640 nm) with 5-um width and 100-um depth filters. […]
In all, about 320,000 compounds went through this assay and about 2,100 (0.66%) were called active. Another 53% or so got no clear call; they are omitted. Calls come from the whole dose curve; as a rule, active = well fitted inhibition curve with a large enough effect in the signal ratio, with a control signal flat (not every such curve was filed as active); inconclusive = small, poorly fitted or top-dose-only effect, or effect the other way, or a change in a side signal; inactive = flat fitted curve, though single readings scatter; the % refers to the signal ratio. For the sample, actives were picked, then their nearest neighbours and some compounds at random.
Your answer must be one of the following: YES (active), NO (inactive)

Study these solved cases before continuing.
CCOc1ccc(NC(=O)NC(C)c2ccc3c(c2)OCO3)cc1 (centres undefined); NO
COCc1cc(C)nc(SCC(=O)Nc2ccc(N3CCOCC3)cc2)c1C#N; NO
CCC(N1CCOC1=O)S(=O)(=O)c1ccc(C)cc1 (centres undefined); YES

Please find the next molecule below.
-- ask Recorded test call requested for COCc1cc(C)nc(SCC(=O)Nc2ccccc2N2CCOCC2)c1C#N
-- reply YES

---

Run Description: qHTS Assay for Lipid Storage Modulators in Drosophila S3 Cells
Measurement Setup: BODIPY lipid droplet fluorescence, 18-24 h, cells fed with added oleic acid; series mostly up to 46.1 µM
Among all 320,000 compounds or so, about 2,100 (0.66%) were called active. Not shown: some 53% with an inconclusive outcome. The call rests on the fitted dose curve; in most records, active means well fitted inhibition curve with a large enough effect in the signal ratio, with a control signal flat (not every such curve was filed as active); inconclusive means small, poorly fitted or top-dose-only effect, or effect the other way, or a change in a side signal; inactive means flat fitted curve, though single readings scatter; the % refers to the signal ratio. Shown is part of a subset that was picked to be rich in actives.
Your answer must be one of the following: active, inactive

-- ask Recorded test call requested for COCCCNC(=O)CSc1nc2ccccc2c(=O)n1Cc1ccc2c(c1)OCO2
-- reply inactive

-- ask Thanks! And Cc1cc(OC(C)C(=O)N2CCN(c3ccccc3)CC2)c2c(C)c(C)c(=O)oc2c1 (centres undefined) ?
-- reply inactive

-- ask Thanks! And CCN(CC(=O)Nc1ccccc1C(F)(F)F)C(=O)CSCc1ccc(C)cc1 ?
-- reply inactive

---

Run Description: qHTS Assay for Lipid Storage Modulators in Drosophila S3 Cells
Measurement Setup: BODIPY lipid droplet fluorescence, 18-24 h, cells fed with added oleic acid; series mostly up to 46.1 µM
Among all 320,000 compounds or so, about 2,100 (0.66%) were called active. Another 53% or so got no clear call; they are omitted. The call rests on the fitted dose curve; in most records, active means well fitted inhibition curve with a large enough effect in the signal ratio, with a control signal flat (not every such curve was filed as active); inconclusive means small, poorly fitted or top-dose-only effect, or effect the other way, or a change in a side signal; inactive means flat fitted curve, though single readings scatter; the % refers to the signal ratio. The full list was thinned out, with actives kept by preference.
Your answer must be one of the following: 1.0 for active, 0.0 for inactive

Study these solved cases before continuing.
CCc1ccc(/C=C2\SC(=S)N(CCC(=O)NC3=NCCS3)C2=O)cc1; 0.0
CCN(CC)CCNC(=O)CCc1n[nH]c(=O)c2ccccc12; 0.0

-- ask Recorded test call requested for CC(=O)Nc1ccc(OC(=O)c2cc([N+](=O)[O-])ccc2Cl)cc1
-- reply 0.0

-- ask Thanks! And Cc1nnc2n(c1=O)C(CS(=O)(=O)c1ccc3ccccc3c1)CS2 (stereo unspecified) ?
-- reply 0.0

-- ask Thanks! And O=C(NCC1OCCCN1S(=O)(=O)c1cc(F)ccc1F)C(=O)NC1CCCCCC1 (stereo unspecified) ?
-- reply 1.0

-- ask Thanks! And O=[N+]([O-])c1cccc(-c2ccc(C(=S)N3CCOCC3)o2)c1 ?
-- reply 0.0
